These measurements were taken from patent US20250051337A1.

test-system: STK3 (Homo sapiens (Human), UniProt Q13188)
Sequence (Q13188 whole entry): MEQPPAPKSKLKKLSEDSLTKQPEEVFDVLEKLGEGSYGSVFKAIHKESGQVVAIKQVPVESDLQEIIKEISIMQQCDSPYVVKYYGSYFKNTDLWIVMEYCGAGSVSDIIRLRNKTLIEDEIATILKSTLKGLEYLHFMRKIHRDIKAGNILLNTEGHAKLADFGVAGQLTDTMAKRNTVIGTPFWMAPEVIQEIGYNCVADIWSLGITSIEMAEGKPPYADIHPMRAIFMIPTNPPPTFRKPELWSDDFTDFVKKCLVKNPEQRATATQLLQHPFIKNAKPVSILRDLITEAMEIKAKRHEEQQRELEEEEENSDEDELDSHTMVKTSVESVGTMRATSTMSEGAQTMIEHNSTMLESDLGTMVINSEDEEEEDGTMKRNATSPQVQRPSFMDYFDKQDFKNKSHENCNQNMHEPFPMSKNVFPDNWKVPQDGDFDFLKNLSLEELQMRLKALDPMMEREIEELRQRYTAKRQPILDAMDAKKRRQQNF
method-notes: ADP-Glo kinase assay, STK3
Type: biochemical
condition-summary: ADP-Glo, 50 μM ATP; read-out: STK3 IC50
attribute-measured: IC50

These recorded examples may help you get a feel for the data.
>>> obs_value("COc1ccc(-c2c[nH]c3ncnc(N4CCOCC4)c23)cc1")
"1 to 5 µM"
>>> obs_value("CC(=O)c1ccc(-c2c[nH]c3ncnc(N4CCOCC4)c23)cc1")
"> 5 µM"
>>> obs_value("Fc1cnc(Cl)cc1-c1c[nH]c2ncnc(N3CCOCC3)c12")
"> 5 µM"

So what's the measured IC50 for this one? Clc1cccc(-c2c[nH]c3ncnc(NCc4ccncc4)c23)c1 > 5 µM

Would you mind telling me what IC50 value was observed for C=CCNc1ncnc2[nH]cc(-c3cccc(Cl)c3)c12 ? < 1 µM

Any idea what its IC50 is? The molecule is CC(CNc1ncnc2[nH]cc(-c3cccc(Cl)c3)c12)C(=O)O (stereo not shown) 1 to 5 µM

Please report the recorded IC50 for CC(=O)N1CCN(c2ncnc3[nH]cc(-c4cccc(Cl)c4)c23)CC1 . 1 to 5 µM

State the recorded IC50 for this entry: Clc1cccc(-c2c[nH]c3ncnc(NCC4CC4)c23)c1 < 1 µM

Consider the molecule c1cc(-c2c[nH]c3ncnc(N4CCOCC4)c23)ccn1 and give its measured IC50. > 5 µM

What value of measured IC50 is listed for Clc1cccc(-c2c[nH]c3ncnc(NCCc4ccccn4)c23)c1 ? 1 to 5 µM

Bench note: what IC50 did Clc1cccc(-c2c[nH]c3ncnc(NCc4ccc(Cl)nc4)c23)c1 show? > 5 µM

Would you kindly share the measured IC50 for CC(O)CNc1ncnc2[nH]cc(-c3cccc(Cl)c3)c12 (stereo not shown) ? < 1 µM

Bench note: what IC50 did O=C(O)c1ccc(Nc2nc(N3CCOCC3)c3c(-c4cccc(Cl)c4)c[nH]c3n2)cc1 show? 1 to 5 µM

Which IC50 value belongs to Clc1cccc(-c2c[nH]c3ncnc(NCc4cnco4)c23)c1 ? > 5 µM

Entry COC(=O)c1ccc(Nc2nc(N3CCOCC3)c3c(-c4cccc(Cl)c4)c[nH]c3n2)cc1 has what IC50? > 5 µM

IC50 lookup needed for Clc1cccc(-c2c[nH]c3ncnc(N4CCC4)c23)c1 , thanks. 1 to 5 µM

IC50 for COc1cccc(CNc2ncnc3[nH]cc(-c4cccc(Cl)c4)c23)c1 ? > 5 µM

For the molecule shown here, Fc1c(-c2c[nH]c3ncnc(N4CCOCC4)c23)ccnc1Cl , give the reported IC50. > 5 µM

# lookup: IC50 of c1csc(-c2c[nH]c3ncnc(N4CCOCC4)c23)c1 < 1 µM

Which measured IC50 value corresponds to Cc1ccc(CNc2ncnc3[nH]cc(-c4cccc(Cl)c4)c23)cc1C ? > 5 µM

Tell me the measured IC50 of COc1ncc(-c2c[nH]c3ncnc(N4CCOCC4)c23)cn1 , please. > 5 µM

Entry Clc1cccc(-c2c[nH]c3ncnc(NCc4nccs4)c23)c1 : reported IC50 = ? > 5 µM

// lookup IC50 for Clc1cccc(-c2c[nH]c3ncnc(NCC4CCCCCC4)c23)c1 > 5 µM

Could you share which IC50 value was measured for Cc1cccc(-c2c[nH]c3ncnc(N4CCOCC4)c23)c1 ? < 1 µM

Entry NC(=O)c1cccc(-c2c[nH]c3ncnc(N4CCOCC4)c23)c1 has what IC50? < 1 µM
